# Tested on: HUVEC/MSC spheroids viability
# Protocol Summary: Human HUVEC/MSC cell line growth inhibition [KRAS2];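 note: percent of DMSO vehicle control luminescence so 100% = untreated viability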
# Test Conditions: second compound 0.316 µM; first compound 1 µM; hits give low values
Sorting guide: entries reporting viability, T/C beneath 90% go in the yes (1) pile, the rest go in the no (0) pile.

Illustrative cases are given below, each with its answer.
compound="CC(C)NCC(C(=O)N1CCN(c2ncnc3c2C(C)CC3O)CC1)c1ccc(Cl)cc1 (stereo not given) + C=CC(=O)N1CCN(c2nc(=O)n(-c3c(C)ccnc3C(C)C)c3nc(-c4c(O)cccc4F)c(F)cc23)C(C)C1" system_name="HUVEC/MSC spheroids viability" classification="yes (1)"
compound="COc1cc(Nc2ncc3c(n2)-c2ccc(Cl)cc2C(c2c(F)cccc2OC)=NC3)ccc1C(=O)O + COc1cc2nc(C)nc(NC(C)c3cc(N)cc(C(F)(F)F)c3)c2cc1OC1CCOC1" system_name="HUVEC/MSC spheroids viability" classification="no (0)"
compound="CC1OCC2(CCN(c3cnc(Sc4ccnc(N)c4Cl)c(N)n3)CC2)C1N (stereo not given) + COc1cc2nc(C)nc(NC(C)c3cc(N)cc(C(F)(F)F)c3)c2cc1OC1CCOC1" system_name="HUVEC/MSC spheroids viability" classification="yes (1)"
compound="CC1(C)CCC(CN2CCN(c3ccc(C(=O)NS(=O)(=O)c4ccc(NCC5CCOCC5)c([N+](=O)[O-])c4)c(Oc4cnc5[nH]ccc5c4)c3)CC2)=C(c2ccc(Cl)cc2)C1 + C=CC(=O)N1CCN(c2nc(=O)n(-c3c(C)ccnc3C(C)C)c3nc(-c4c(O)cccc4F)c(F)cc23)C(C)C1" system_name="HUVEC/MSC spheroids viability" classification="no (0)"

Lab note: viability, T/C threshold 90%. Does this compound come in strictly under it? CCN1CCN(Cc2ccc(Nc3ncc(F)c(-c4cc(F)c5nc(C)n(C(C)C)c5c4)n3)nc2)CC1 + COc1cc2nc(C)nc(NC(C)c3cc(N)cc(C(F)(F)F)c3)c2cc1OC1CCOC1
no (0)

Record COC(=O)c1ccc2c(C(=Nc3ccc(N(C)C(=O)CN4CCN(C)CC4)cc3)c3ccccc3)c(O)[nH]c2c1 + C=CC(=O)N1CCN(c2nc(=O)n(-c3c(C)ccnc3C(C)C)c3nc(-c4c(O)cccc4F)c(F)cc23)C(C)C1 : is its viability, T/C strictly below 90%?
yes (1)

Given the entry Cn1nccc1Nc1nccc(-c2cc3c(s2)C(C)(C)N(CCN2CCOCC2)C3=O)n1 + C=CC(=O)N1CCN(c2nc(=O)n(-c3c(C)ccnc3C(C)C)c3nc(-c4c(O)cccc4F)c(F)cc23)C(C)C1 , would its reported viability, T/C be below 90%?
no (0)

Hi there! Is viability, T/C for CC(C)NCC(C(=O)N1CCN(c2ncnc3c2C(C)CC3O)CC1)c1ccc(Cl)cc1 (stereo not given) + CC1OCC2(CCN(c3cnc(Sc4ccnc(N)c4Cl)c(N)n3)CC2)C1N below 90%, do you know?
yes (1)

Problem: For the compound COc1cc2nccc(Oc3ccc(NC(=O)C4(C(=O)Nc5ccc(F)cc5)CC4)cc3)c2cc1OC + COc1cc2nc(C)nc(NC(C)c3cc(N)cc(C(F)(F)F)c3)c2cc1OC1CCOC1 , is viability, T/C under 90%?
yes (1)
